pIC50: −log10 of the molar value.
Consider molecules characterized by their pIC50 with CREBBP (Homo sapiens (Human), UniProt Q92793).
Sequence (Q92793 1081-1197): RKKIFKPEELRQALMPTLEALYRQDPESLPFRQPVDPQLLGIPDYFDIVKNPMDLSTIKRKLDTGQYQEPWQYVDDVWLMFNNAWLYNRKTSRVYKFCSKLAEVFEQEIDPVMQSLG
QUANTITY_MEASURED: pIC50

[[record]]
molecule = "Cc1cc(N2C(=O)c3c(C(=O)NCCN(C)C)cn(C)c3C2c2ccc(Cl)cc2)cc2c1nnn2C (stereo not shown)"
data_value = 4.76

[[record]]
molecule = "Cc1cc(N2C(=O)c3cc[nH]c3C2c2ccc(Cl)cc2)cn2c(C)nnc12 (stereo not shown)"
data_value = 5.29

[[record]]
molecule = "Cn1c(-c2cccn(C)c2=O)cc2c1C(c1ccc(Cl)cc1)N(c1cc(Cl)c(=O)n(C)c1)C2=O (stereo not shown)"
data_value = 6.16

[[record]]
molecule = "Cc1cc(N2C(=O)c3c(C4CC4)cn(C)c3[C@H]2c2ccc(Cl)cc2)cn2c(C)nnc12"
data_value = 5.39

[[record]]
molecule = "Cc1cc(N2C(=O)c3cc(-c4ccn(C)c(=O)c4)n(C)c3C2c2ccc(Cl)cc2)cn(C)c1=O (stereo not shown)"
data_value = 6.43

[[record]]
molecule = "Cc1cn(C2COC2)c2c1C(=O)N(c1cc(C)c3nnc(C)n3c1)C2c1ccc(Cl)cc1 (stereo not shown)"
data_value = 5.22

[[record]]
molecule = "Cc1cc(N2C(=O)c3c(C4CC4)cn(C)c3C2c2ccc(Cl)cc2)cn2c(C)nnc12 (stereo not shown)"
data_value = 5.21

[[record]]
molecule = "Cn1cc(N2C(=O)c3cc(-c4cccn(C)c4=O)n(C4CC4)c3C2c2ccc(Cl)cc2)cc(Cl)c1=O (stereo not shown)"
data_value = 5.82

[[record]]
molecule = "COc1ncc(-c2cc3c(n2C)[C@@H](c2ccc(Cl)cc2)N(c2cc(C)c(=O)n(C)c2)C3=O)cn1"
data_value = 6.89

[[record]]
molecule = "Cc1cn(C2CCN(C)C2=O)c2c1C(=O)N(c1cc(C)c3nnc(C)n3c1)C2c1ccc(Cl)cc1 (stereo not shown)"
data_value = 4.89


P = Cc1cc(N2C(=O)c3c(C4CC4)cn(C4COC4)c3C2c2ccc(Cl)cc2)nc2c1nnn2C (stereo not shown)
Q = Cc1cc(N2C(=O)c3cc(C4=CCOCC4)n(C)c3C2c2ccc(Cl)cc2)cn2c(C)nnc12 (stereo not shown)
Query string: Please choose the item with the lower pIC50 value from this pair: P and Q # respond with the chosen item's label
Result string: P
(P: 4.83, Q: 5.51)
